System: HOP-62
Experiment: NCI tumour cell line growth inhibition, 48 h
The source made the active and inactive calls. No stated cut-off is given here; in the data, active = GI50 up to about 1.1 µM and inactive = higher.
Valid outcomes are listed here; reply with one: active, inactive

Worked set:
compound="COc1ccc(-c2c(C#N)c(O)n(C3OC(CO)C(O)C(O)C3O)c(=S)c2C#N)cc1 (stereo not given)" label_class=inactive
compound=O=CNCNCCO label_class=inactive
compound=C=C1[C@@H](OC(C)=O)[C@H]2[C@@H](OC(C)=O)[C@@](C)(OC(C)=O)C[C@]2(OC(C)=O)C(=O)[C@@H](C)/C=C/C(C)(C)C(=O)C[C@H]1OC(C)=O label_class=inactive
compound=CCOC(=O)c1csc(NC(=O)CCN2CCCCC2)n1 label_class=inactive
compound=NCCn1ccc(NC(c2ccccc2)(c2ccccc2)c2ccccc2)nc1=O label_class=inactive
compound="Cc1ccc2nc(NC(=O)C(=O)C(C#N)c3ccc(Cl)cc3)sc2c1 (stereo not given)" label_class=inactive

What call does the record list for COC(=O)/C(=N/Nc1cccc(Cl)c1)C(C(=O)C(=O)Nc1cccc(Cl)c1C)c1nc2ccccc2nc1C (stereo not given) ?
inactive

What call does the record list for "CCOC(=O)N1CCC(N[C@@H]2c3cc4c(cc3[C@@H](c3cc(OC)c(O)c(OC)c3)[C@H]3C(=O)OC[C@@H]32)OCO4)CC1" ?
active

What call does the record list for "COC(=O)[C@]12CC[C@H]3CC[C@H]([C@H]31)[C@H](c1ccccc1)N2" ?
inactive

What call does the record list for "Cn1c(=O)c2c(nc3n2CC(=O)N3CCCCl)n(C)c1=O" ?
inactive

====

System: KM12
Assay: NCI tumour cell line growth inhibition, 48 h
Active and inactive are the calls of the source. Rule as the data show it: active = GI50 up to about 1.1 µM and inactive = higher.
Valid outcomes are listed here; reply with one: active, inactive

Worked set:
compound="C[C@]12CC[C@H](OC3CCCCO3)CC1=CC[C@@H]1C2CC[C@]2(C)/C(=N/OCCC#N)CCC12 (stereo not given in full)" label_class=inactive
compound=CC(C(=O)NCCNC(=O)CCC(=O)N(C)O)C(=O)NCCNC(=O)CCC(=O)N(C)O label_class=inactive
compound="CCOC(=O)CC1COc2ccc3c(c21)OCO3 (stereo not given)" label_class=inactive
compound="NC(Cc1ccnnc1)C(=O)O (stereo not given)" label_class=inactive
compound=C/C(CC/C(C)=N/O)=N\O label_class=inactive

What call does the record list for NC(C(=O)O)c1ccc(C(=O)O)cc1 (stereo not given) ?
inactive

What call does the record list for "O=[PH](O)c1ccccn1" ?
inactive

What call does the record list for "C=Cc1cnc([N+](=O)[O-])n1C" ?
inactive

What call does the record list for "O=C1C(Cl)=C(N2CCSCC2)C(=O)c2c(O)ccc(O)c21" ?
active

====

Test system: DMS-114
Test: NCI tumour cell line growth inhibition, 48 h
Active and inactive are the calls of the source. Rule as the data show it: active = GI50 up to about 1.1 µM and inactive = higher.
endpoint.label: GI50

The cases that follow already have their GI50 on record.
molecule="C[C@]12CC[C@H](OC3CCCCO3)CC1=CC[C@@H]1C2CC[C@]2(C)/C(=N/OCCC#N)CCC12 (stereo partly specified)" value_reported="4.76 µM (inactive)"
molecule="C#CCN1C(=O)CN2C(Cl)(Cl)C2(c2ccccc2)c2cc(Cl)ccc21 (stereo unspecified)" value_reported="51.5 µM (inactive)"
molecule=O=C(/C=C/c1ccccc1O)c1ccc([N+](=O)[O-])cc1 value_reported="10.3 µM (inactive)"
molecule=O=C(N[C@@H]1C=CCC[C@@H]1c1ccccc1)OCc1ccccc1 value_reported="21.7 µM (inactive)"
molecule=COc1cc(C2C(C(=O)NCc3ccccc3)=C(C)NC(C)=C2C(=O)NCc2ccccc2)ccc1O value_reported="39.4 µM (inactive)"

Kindly consider the entry below.
Note down GI50 recorded for COC1C(OC(=O)/C=C/C=C/C=C/C=C\C(=O)O)CCC2(CO2)C1C1(C)OC1CC=C(C)C (stereo unspecified)
> 100 µM (inactive)
